Reported values of Dye diffusion t1/2, Soln. for individual entries
- Test details: Dye diffusion, solution test
- Format: physicochemical
- Protocol conditions: pH 13.4, 0.0025 M dye
Express it in s; write the number only.

Molecule: CC(C)NS(=O)(=O)c1cnc(N=Nc2ccc(O)c3cccnc23)c(Cl)c1
Unit string: s
Dye diffusion t1/2, Soln.: 44

Molecule: COc1cc(S(=O)(=O)Nc2cccc(O)c2)cnc1N=Nc1ccc(O)c2cccnc12
Unit string: s
Dye diffusion t1/2, Soln.: 40

Molecule: NS(=O)(=O)c1cccc(NS(=O)(=O)c2cnc(N=Nc3ccc(O)c4cccnc34)c(Cl)c2)c1
Unit string: s
Dye diffusion t1/2, Soln.: 41

Molecule: CN(c1cccc(O)c1)S(=O)(=O)c1cnc(N=Nc2ccc(O)c3cccnc23)c(Cl)c1
Unit string: s
Dye diffusion t1/2, Soln.: 69

Molecule: NS(=O)(=O)c1cnc(N=Nc2ccc(O)c3cccnc23)c(Cl)c1
Unit string: s
Dye diffusion t1/2, Soln.: 31

## Input For O=S(=O)(Nc1ccccc1)c1cnc(N=Nc2ccc(O)c3cccnc23)c(Cl)c1 , what is its reported Dye diffusion t1/2, Soln.?
## Output 81

## Input Tell me the measured Dye diffusion t1/2, Soln. of O=S(=O)(Nc1cccc(O)c1)c1cnc(N=Nc2ccc(O)c3cccnc23)c(Cl)c1 , please.
## Output 39

----------
- Test details: Transmission spectra of Ni-dye complexes on mordanted receiving element (Example 1)
- Assay type: physicochemical
- Protocol conditions: nickel sulfate/gelatin + poly(4-vinylpyridine)/gelatin mordant receiver; pH 7.0 buffer; normalized to density 1.0
Mark fulfilled for reported Mordant HBW of Ni-dye complex of 70 nm or greater; mark not fulfilled for anything smaller.

Smiles repr: COc1cc(S(=O)(=O)NC(C)(C)C)cnc1N=Nc1ccc(O)c2cccnc12
Discrete label: fulfilled
--
Smiles repr: COc1cc(S(=O)(=O)Nc2cccc(O)c2)cnc1N=Nc1ccc(O)c2cccnc12
Discrete label: fulfilled
--
Smiles repr: CC(C)NS(=O)(=O)c1cnc(N=Nc2ccc(O)c3cccnc23)c(Cl)c1
Discrete label: not fulfilled
--
Smiles repr: NS(=O)(=O)c1cccc(NS(=O)(=O)c2cnc(N=Nc3ccc(O)c4cccnc34)c(Cl)c2)c1
Discrete label: fulfilled
--
Smiles repr: CN(c1cccc(O)c1)S(=O)(=O)c1cnc(N=Nc2ccc(O)c3cccnc23)c(Cl)c1
Discrete label: not fulfilled

# input for lookup
## Input Tell me whether Mordant HBW of Ni-dye complex is at least 70 nm here: NS(=O)(=O)c1cnc(N=Nc2ccc(O)c3cccnc23)c(Cl)c1
## Output not fulfilled

----------
- Test details: Light stability (percent fade after HID xenon arc irradiation)
- Format: physicochemical
- Protocol conditions: 10 days HID 6000 W xenon arc, 50,000 lux, Wratten 2B filter, approx. 38° C., low humidity, pH 7
- Source text: An alternative receiving element was used with the premetallized dye-complexes. It comprised a poly(ethylene terephthalate) film support having thereon a layer of gelatin (1.1 g/m^2) and a mordant layer of poly(styrene-co-1-vinylimidazole-co-3-benzyl-1-vinylimidazolium chloride (50:40:10) (4.5 g/m^2) and gelatin (2.2 g/m^2). […]
Assay readout: % Fade (loss in density at λmax) (%)
# value in %; strip the unit string

Smiles repr: O=S(=O)(Nc1ccccc1)c1cnc(N=Nc2ccc(O)c3cccnc23)c(Cl)c1
Unit string: %
% Fade (loss in density at λmax): 0
--
Smiles repr: COc1cc(S(=O)(=O)Nc2cccc(O)c2)cnc1N=Nc1ccc(O)c2cccnc12
Unit string: %
% Fade (loss in density at λmax): 0
--
Smiles repr: NS(=O)(=O)c1cnc(N=Nc2ccc(O)c3cccnc23)c(Cl)c1
Unit string: %
% Fade (loss in density at λmax): 0
--
Smiles repr: CN(c1cccc(O)c1)S(=O)(=O)c1cnc(N=Nc2ccc(O)c3cccnc23)c(Cl)c1
Unit string: %
% Fade (loss in density at λmax): 0

## Input Item under review: O=S(=O)(Nc1cccc(O)c1)c1cnc(N=Nc2ccc(O)c3cccnc23)c(Cl)c1 . Reported % Fade (loss in density at λmax)?
## Output 1

## Input Reported % Fade (loss in density at λmax) for NS(=O)(=O)c1cccc(NS(=O)(=O)c2cnc(N=Nc3ccc(O)c4cccnc34)c(Cl)c2)c1 : what is it?
## Output 2

## Input What value of measured % Fade (loss in density at λmax) is listed for CC(C)NS(=O)(=O)c1cnc(N=Nc2ccc(O)c3cc(C(=O)Nc4cccc(O)c4)c(Cl)nc23)c(Cl)c1 ?
## Output 7

These data points were gathered from patent US4436799A.
